tested on: LOX IMVI melanoma; experiment: NCI tumour cell line growth inhibition, 48 h
reportedMetric: TGI (µM)
Answer with a number only, understood to be in µM.

Return value of TGI for input C[C@H](C/C=C/C(C)(C)O)[C@H]1CC[C@@]2(C)[C@@H]3CC[C@H]4C(C)(C)[C@@H](O)CC[C@@]45C[C@@]35CC[C@]12C , no commentary. 29.4

Return value of TGI for input COc1ccccc1C[C@@H]1OC2(C=CC(=O)C=C2)O[C@H]1Cc1ccccc1OC , no commentary. 13.8

Return value of TGI for input CC(=O)[O][Hg][c]1c(C)c(C)cc(C)c1C , no commentary. 3.06

Return value of TGI for input CN(CC(=O)N(Cc1ccc(C2CCCCC2)cc1)c1ccc(C(=O)O)cc1)S(=O)(=O)c1c(F)c(F)c(F)c(F)c1F , no commentary. 3.03

====

system: IGROV1 ovarian; test: NCI tumour cell line growth inhibition, 48 h
reportedMetric: TGI

Return value of TGI for input CC(=O)OC1COC(n2c(=S)n(-c3ccccc3)c(=O)c3ccccc32)C(OC(C)=O)C1OC(C)=O (configuration not stated) , no commentary. > 100 µM

Return value of TGI for input CCOC(=O)COc1ccc2c(C)cc(=O)oc2c1 , no commentary. > 100 µM

Return value of TGI for input Cn1cc(C2=C(c3cn(CCCCCSC(=N)N)c4ccccc34)C(=O)NC2=O)c2ccccc21 , no commentary. 7.93 µM

Return value of TGI for input Cc1c(/C=N/N(C)C)oc2c1cc(O)c1ncccc12 , no commentary. 55.7 µM

Return value of TGI for input COC(=O)[C@H]1CCCN1C(=O)[C@H]1CCCN1C(=O)[C@H](Cc1c[nH]c2ccccc12)NC(=S)Nc1cc(C(F)(F)F)cc(C(F)(F)F)c1 , no commentary. > 100 µM

Return value of TGI for input O=C1/C=C/[C@@H](O)[C@@H]2C[C@@H](O)C[C@H]2/C=C/CCC[C@H](C(F)(F)F)O1 , no commentary. 4.16 µM

Return value of TGI for input COc1cc2nc(-c3cccs3)[nH]c(=O)c2cc1OC , no commentary. > 100 µM

Return value of TGI for input CN(C)c1cccc(NC2=NCCO2)c1 , no commentary. > 100 µM

Return value of TGI for input Cc1nc2c(=S)n(C)ncc2[nH]1 , no commentary. > 100 µM

Return value of TGI for input C/C1=C\C=C(\C(C)C)CC/C(C(=O)O)=C\CC/C(C)=C/CC1 , no commentary. > 100 µM

Return value of TGI for input CN(C)CCNC(=O)c1cccc2c1Oc1c(cccc1[N+](=O)[O-])O2 , no commentary. 8.9 µM

Return value of TGI for input Nc1ncnc2c1ncn2C1OC(CO)C(O)C1N (configuration not stated) , no commentary. > 100 µM

====

Answer each item with its documented TGI.
tested on: HCT-116 colon; test: NCI tumour cell line growth inhibition, 48 h

Provide measured TGI on HCT-116 colon for Cc1nc2c(=S)n(C)ncc2[nH]1 please. > 100 µM

Provide measured TGI on HCT-116 colon for CSc1c(C(=O)Nc2ccc(Cl)cc2)c(N)n(N)c(=O)c1C#N please. > 100 µM

Provide measured TGI on HCT-116 colon for CC1=C(C(=O)Nc2cc(F)c(F)cc2F)C(c2ccc([N+](=O)[O-])cc2)C(C(=O)Nc2cc(F)c(F)cc2F)=C(C)N1 please. > 100 µM

Provide measured TGI on HCT-116 colon for CC(=O)O[C@H]1CC[C@@]2(C)C(=CC[C@@H]3C2CC[C@]2(C)Nc4nc5ccccc5cc4CC32)C1 (stereo partly specified) please. 3.8 µM

Provide measured TGI on HCT-116 colon for CCn1c(SCC(=O)NNC(=S)NC)nc2ccccc2c1=O please. > 100 µM

Provide measured TGI on HCT-116 colon for COC(=O)c1ccc(NC(=O)Oc2ccc(N(CCCl)CCCl)cc2)cc1 please. > 100 µM

Provide measured TGI on HCT-116 colon for CO[C@H]1C[C@@H]2CC[C@@H](C)[C@@](O)(O2)C(=O)C(=O)N2CCCC[C@H]2C(=O)O[C@H]([C@H](C)C[C@@H]2CC[C@@H](OCCO)[C@H](OC)C2)CC(=O)[C@H](C)C=C(C)[C@@H](O)[C@@H](OC)C(=O)[C@H](C)C[C@H](C)/C=C/C=C/C=C1C please. 18.9 µM

Provide measured TGI on HCT-116 colon for CCc1nc(N)nc(N)c1-c1ccc(N2CCNCC2)cc1 please. > 100 µM

Provide measured TGI on HCT-116 colon for c1cnc(N2CCN(Cc3c[nH]c4ccccc34)CC2)nc1 please. > 100 µM

Provide measured TGI on HCT-116 colon for CC(=O)Oc1ccc(/C=C/C(=O)O[C@@H](C(=O)O)[C@@H](OC(=O)/C=C/c2ccc(OC(C)=O)c(OC(C)=O)c2)C(=O)O)cc1OC(C)=O please. > 100 µM

Provide measured TGI on HCT-116 colon for O=C(NNc1nc(-c2ccccc2)cs1)C(F)(F)F please. > 100 µM

Provide measured TGI on HCT-116 colon for ClC(Cl)[Si]12OCCN(CCO1)CCO2 please. > 100 µM

Provide measured TGI on HCT-116 colon for Cc1ccc2c(c1)C(=O)C(C1OC(=O)c3ccccc31)C2 (stereo unspecified) please. > 100 µM

Provide measured TGI on HCT-116 colon for COc1ccc(N=N/C(C(=O)C(F)(F)F)=C(\O)c2ccc(Cl)cc2)cc1 please. 26.2 µM

Provide measured TGI on HCT-116 colon for CCSc1c2ccccc2c(-c2nc(F)nc(F)n2)n1CCc1ccccc1 please. > 100 µM

Provide measured TGI on HCT-116 colon for C[Si](C)(C)C1=C([Si](C)(C)C)C(Cl)(Cl)C1=O please. 7.02 µM

====

system: HOP-92 NSCLC; experiment: NCI tumour cell line growth inhibition, 48 h
reportedMetric: GI50

Return value of GI50 for input COc1ccc(N(C)c2nc(N)nc3sc4c(c23)CCCC4)cc1 , no commentary. < 0.0187 µM

Return value of GI50 for input CN1C(=O)C2(c3ccccc31)N(c1ccc(Cl)cc1)C(=O)C2(c1ccccc1)c1ccccc1 (centres undefined) , no commentary. 5.62 µM

Return value of GI50 for input CCCCCCCCCCCCCC[C@@H](O)[C@H]1CC[C@H]([C@H]2CC[C@H]([C@H](O)CCCCCC[C@@H](O)CC3=C[C@H](C)OC3=O)O2)O1 , no commentary. > 25 µM

Return value of GI50 for input Cn1c(-c2c(N)n(CCCN3CCOCC3)c3nc(C#N)c(C#N)nc23)nc2ccccc21 , no commentary. 2.73 µM

====

tested on: PC-3 prostate; assay: NCI tumour cell line growth inhibition, 48 h
Answer each item with its documented TGI.

Return value of TGI for input C#CCOc1ccc2ncnc(Nc3ccc(NC(=O)C=C)cc3)c2c1 , no commentary. > 100 µM

Return value of TGI for input N#C[C@H](c1nc2ccccc2s1)c1nc2ccccc2nc1Cl , no commentary. > 100 µM

Return value of TGI for input COc1ccc2oc(=O)c(-c3csc(C)n3)cc2c1 , no commentary. > 100 µM

====

tested on: SK-MEL-5 melanoma; experiment: NCI tumour cell line growth inhibition, 48 h
Answer each item with its documented TGI.

Return value of TGI for input CN1C(=O)C2(c3ccccc31)N(c1ccc(Cl)cc1)C(=O)C2(c1ccccc1)c1ccccc1 (stereo not drawn) , no commentary. > 100 µM

Return value of TGI for input O=C(OCC(Cl)(Cl)Cl)O[C@@H]1CCCC1(c1ccccc1)c1ccccc1 , no commentary. > 100 µM

Return value of TGI for input C#CCOc1ccc2ncnc(Nc3ccc(NC(=O)C=C)cc3)c2c1 , no commentary. > 100 µM

Return value of TGI for input O=[N+]([O-])c1cccc(C2CC(c3ccccc3)=Nc3ccccc3S2)c1 (stereo not drawn) , no commentary. 29.6 µM

Return value of TGI for input Cc1nc2ccccc2c(/C=C/c2ccc(Cl)cc2)c1C(=O)/C=C/c1ccc(Cl)cc1 , no commentary. 3 µM

Return value of TGI for input Oc1[nH]c2ccccc2c1/C=c1/cc2c(c(-c3ccc(F)cc3)n1)=Nc1ccccc1-2 , no commentary. 3.06 µM

Return value of TGI for input Nc1ncnc2c1ncn2C1OC(CO)C(O)C1N (stereo not drawn) , no commentary. > 100 µM

Return value of TGI for input CCOc1cc(NC(C)=O)ccc1C(=O)NN1C(=O)CSC1c1ccccc1 (stereo not drawn) , no commentary. > 100 µM

Return value of TGI for input CC(=O)OC1COC(n2c(=S)n(-c3ccccc3)c(=O)c3ccccc32)C(OC(C)=O)C1OC(C)=O (stereo not drawn) , no commentary. > 100 µM

Return value of TGI for input CN(C)c1cc[n+](-c2nc(/N=C(\[O-])C(F)(F)F)nc3c2ncn3C2CC(O)C(CO)O2)cc1 (stereo not drawn) , no commentary. > 100 µM

Return value of TGI for input c1ccc2c3c([nH]c2c1)C(c1ccc(C2NCCc4c2[nH]c2ccccc42)cc1)NCC3 (stereo not drawn) , no commentary. 3.13 µM

Return value of TGI for input COc1ccc2oc(=O)c(-c3csc(C)n3)cc2c1 , no commentary. > 100 µM

Return value of TGI for input COc1ccc(-n2sc3ncccc3c2=O)cc1 , no commentary. 44.6 µM
